- test-system: CDK8/cyclin C (Homo sapiens (Human), UniProt P49336)
- Sequence (P49336 whole entry, looked up): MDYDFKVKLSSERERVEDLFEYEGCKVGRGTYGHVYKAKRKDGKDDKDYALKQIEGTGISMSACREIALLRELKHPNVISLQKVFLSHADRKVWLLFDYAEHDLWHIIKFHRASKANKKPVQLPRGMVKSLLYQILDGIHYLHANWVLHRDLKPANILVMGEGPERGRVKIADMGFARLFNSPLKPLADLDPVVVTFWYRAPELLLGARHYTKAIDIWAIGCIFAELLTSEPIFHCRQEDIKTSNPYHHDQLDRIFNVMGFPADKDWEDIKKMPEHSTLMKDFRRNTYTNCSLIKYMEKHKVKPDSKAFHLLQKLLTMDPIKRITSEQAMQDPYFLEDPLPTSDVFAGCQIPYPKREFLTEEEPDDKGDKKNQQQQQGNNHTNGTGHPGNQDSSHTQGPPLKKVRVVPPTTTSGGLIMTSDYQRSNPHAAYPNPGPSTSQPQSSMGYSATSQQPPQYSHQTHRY
- Sequence (P24863 whole entry partner, looked up): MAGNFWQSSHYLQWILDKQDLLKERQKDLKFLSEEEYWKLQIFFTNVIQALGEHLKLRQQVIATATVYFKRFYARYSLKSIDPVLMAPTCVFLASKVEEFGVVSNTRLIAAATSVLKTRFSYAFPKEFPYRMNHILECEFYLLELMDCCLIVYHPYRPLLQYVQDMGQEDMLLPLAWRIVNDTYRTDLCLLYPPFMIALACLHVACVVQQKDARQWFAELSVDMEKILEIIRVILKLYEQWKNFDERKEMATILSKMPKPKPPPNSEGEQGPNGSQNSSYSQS
- assay-comment: LanthaScreen Eu Kinase Binding Assay for CDK8/cyclin C
- measurement-conditions: 10-point curve, 4-fold dilution series, 60 min at room temperature
Below: a set of entries, each annotated with reported IC50.
Write the number in nM without appending the unit.

Illustrative cases are given below, each with its answer.
O=C1NCCC12CCN(c1c(-c3ccc4[nH]cnc4c3)cnc3[nH]ccc13)CC2 : 4.97
Cn1ncc2cc(-c3cnc4[nH]ccc4c3N3CCC4(CC3)CNC4=O)ccc21 : 6.3
Cn1ncc2cc(-c3cnc4[nH]cc(Cl)c4c3N3CCC4(CCNC4=O)CC3)ccc21 : 1.73

Request: // Input: O=C1NCCC12CCN(c1c(-c3ccn4ccnc4c3)cnc3[nH]ccc13)CC2 . Output its IC50 only.
Response: 76.4

Request: // Input: Cn1ncc2cc(-c3cnc4sccc4c3N3CCC4(CCNC4=O)CC3)ccc21 . Output its IC50 only.
Response: 206

Entry source: patent US12410194B2
